The following compounds each carry a recorded Ka for Acetylcholinesterase (Homo sapiens) (UniProt P22303).
// units = ×10³ /M/min; emit number, no label

In [3]: df
Out[3]:
                           record_smiles  assay_metric  recorded_number
0        CC(C)OC(=O)N1c2ccccc2Sc2ccccc21            Ka              1.8
1           CCOC(=O)N1c2ccccc2Sc2ccccc21            Ka            0.193
2  Cc1cccc(OC(=O)N2c3ccccc3Sc3ccccc32)c1            Ka             7.49

Here is the next item to consider.
Missing value: Ka, Acetylcholinesterase (Homo sapiens) (UniProt P22303), entry O=C(Oc1cccc(Cl)c1)N1c2ccccc2Sc2ccccc21 . Fill in?
3.21

----------
Target: Cholinesterase (Homo sapiens, UniProt P06276)
Sequence (P06276 whole entry): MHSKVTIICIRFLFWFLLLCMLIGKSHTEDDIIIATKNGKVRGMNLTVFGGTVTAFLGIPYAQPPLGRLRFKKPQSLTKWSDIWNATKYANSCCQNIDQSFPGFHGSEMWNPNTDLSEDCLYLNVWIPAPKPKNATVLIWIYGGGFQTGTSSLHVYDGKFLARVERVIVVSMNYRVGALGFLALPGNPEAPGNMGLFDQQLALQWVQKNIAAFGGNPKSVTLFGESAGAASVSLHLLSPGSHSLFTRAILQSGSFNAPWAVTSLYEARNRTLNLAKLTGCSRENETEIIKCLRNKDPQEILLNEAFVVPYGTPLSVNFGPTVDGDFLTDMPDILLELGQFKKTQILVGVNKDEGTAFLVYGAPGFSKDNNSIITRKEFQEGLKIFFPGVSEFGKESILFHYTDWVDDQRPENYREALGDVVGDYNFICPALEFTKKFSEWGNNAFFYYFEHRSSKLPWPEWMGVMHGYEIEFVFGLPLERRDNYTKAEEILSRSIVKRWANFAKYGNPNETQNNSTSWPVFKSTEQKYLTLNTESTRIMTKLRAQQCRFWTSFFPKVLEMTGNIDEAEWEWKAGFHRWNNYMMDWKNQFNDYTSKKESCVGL
Assay: Inhibition of human serum BchE by Ellman's assay
Assay metric: pKi
Note on pKi: it is the negative log10 of concentration, concentration in mol/L.

State the recorded pKi for this entry: O=C(Oc1ccc2ccccc2c1)N1c2ccccc2Sc2ccccc21
6.92

Quick one: pKi of CC(C)(C)OC(=O)N1c2ccccc2Sc2ccccc21 ?
5.37

Fill blank: measured pKi of the compound O=C(OC1CCCC1)N1c2ccccc2Sc2ccccc21 is ____.
5.50

Using the record for COc1ccc(OC(=O)N2c3ccccc3Sc3ccccc32)cc1 , report its pKi.
5.65

Item O=C(OCCN1CCCC1)N1c2ccccc2Sc2ccccc21 has what recorded pKi?
6.19

// returns reported pKi for input CCCCOC(=O)N1c2ccccc2Sc2ccccc21
4.87

Any idea what pKi was measured for COc1ccccc1OC(=O)N1c2ccccc2Sc2ccccc21 ?
6.47

Please look up its pKi: CN(C)CCOC(=O)N1c2ccccc2Sc2ccccc21
5.61

# input compound: Cc1ccccc1OC(=O)N1c2ccccc2Sc2ccccc21 ; wanted: its pKi
6.41

Request the reported pKi associated with O=C(Oc1ccc(Cl)cc1)N1c2ccccc2Sc2ccccc21
4.98

Please look up its pKi: CC(C)OC(=O)N1c2ccccc2Sc2ccccc21
4.74

Look up pKi for this compound: CCN(CC)CCCOC(=O)N1c2ccccc2Sc2ccccc21
6.13

----------
Target: Cholinesterase (Homo sapiens, UniProt P06276)
Experiment: Inhibition of human serum BchE by Ellman's assay
pKi: −log10 of the molar value.
Classification field: enter true (1) for pKi values not below 6, false (0) for values below it.

>>> df
                              record_smiles  assigned_category
0  CN(C)c1cccc(OC(=O)N2c3ccccc3Sc3ccccc32)c1          false (0)
1     Cc1ccc(OC(=O)N2c3ccccc3Sc3ccccc32)cc1          false (0)
2      O=C(OCCN1CCOCC1)N1c2ccccc2Sc2ccccc21          false (0)
3    O=C(Oc1cccc(Cl)c1)N1c2ccccc2Sc2ccccc21           true (1)
4       CCN(CC)CCOC(=O)N1c2ccccc2Sc2ccccc21           true (1)

Check if pKi >= 6 (inclusive). Item: CCCOC(=O)N1c2ccccc2Sc2ccccc21
false (0)

State whether the measured pKi reaches 6, counting equality as reaching it, for CCOC(=O)N1c2ccccc2Sc2ccccc21
false (0)

Determine whether measured pKi meets or exceeds 6 for COC(=O)N1c2ccccc2Sc2ccccc21
false (0)
